Measured values drawn from patent US20250179192A1 for this set.

# EXPERIMENTAL_SYSTEM: T1, KDR1-3 domains (UniProt P35968 20-327, limits assumed)
# T1 construct: domain: KDR1-3 domains; Immobilized on the Octet biosensor; also called KDR D1-D3; KDR1-3 domain-Fc (as used for panning)
# T1 sequence (P35968 20-327 limits assumed): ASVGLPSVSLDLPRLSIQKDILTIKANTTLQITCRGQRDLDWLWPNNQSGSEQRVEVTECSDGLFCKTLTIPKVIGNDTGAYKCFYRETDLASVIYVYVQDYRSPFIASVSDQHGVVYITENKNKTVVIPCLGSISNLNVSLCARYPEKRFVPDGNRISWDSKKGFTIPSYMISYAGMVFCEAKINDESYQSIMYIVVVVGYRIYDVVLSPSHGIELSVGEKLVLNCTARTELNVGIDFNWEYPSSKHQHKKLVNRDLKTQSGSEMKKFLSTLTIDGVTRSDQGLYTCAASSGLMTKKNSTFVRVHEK
# PROCEDURE_TEXT: Octet BLI, KDR1-3 domains on biosensor, scFv in solution
# Description: The binding ability of the selected antibodies to the antigen was measured using Octet (Fortebio). To this end, KDR1-3 domains were immobilized on a biosensor, candidate antibodies expressed in scFv form were added and bound, and the dissociation rate constant was measured. The results of measurement of dissociation rate constant for the five selected optimized clones [Table 1] and amino acid sequences [Tables 2 and 3] are shown below.

{"BINDER": "LHL-G1 (scFv form) (scFv, V domains shown, Tested as scFv) VH: EVQLVESGGGLVQPGGSLRLSCAASGYTFSSYWMSWVRQAPGKGLEWVSEINPGNGHTNYNEKFKSRFTISRDKSKNTLYLQMNSLRAEDTAVYYCARSYRPSLTSPFDFWGQGTLVTVSS VL: DIQMTQSPSSLSASVGDRVTITCRADNLGDVNVHWYQQKPGKAPKLLIYYDADRPSGVPSRFSGSNSGNDATLTISSLQPEDFATYYCQAPTTNEPYTFGQGTKVEIKR", "koff [s⁻¹]": 0.000239}
{"BINDER": "LH-E7 (scFv form) (scFv, V domains shown, Tested as scFv) VH: EVQLVESGGGLVQPGGSLRLSCAASGYTFSSYWMSWVRQAPGKGLEWVSEINPGNGHTNYNEKFKSRFTISRDKSKNTLYLQMNSLRAEDTAVYYCARHWGPSLTSPFDYWGQGTLVTVSS VL: DIQMTQSPSSLSASVGDRVTITCRADNLGDVNVHWYQQKPGKAPKLLIYYDADRPSGVPSRFSGSNSGNDATLTISSLQPEDFATYYCQAPTRIAPYTFGQGTKVEIKR", "koff [s⁻¹]": 0.000111}
{"BINDER": "D4 (scFv form) (scFv, V domains shown, Tested as scFv) VH: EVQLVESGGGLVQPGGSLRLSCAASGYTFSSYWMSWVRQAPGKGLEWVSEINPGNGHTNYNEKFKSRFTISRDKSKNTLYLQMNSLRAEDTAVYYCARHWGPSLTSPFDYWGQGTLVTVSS VL: DIQMTQSPSSLSASVGDRVTITCRADNLGDVNVHWYQQKPGKAPKLLIYYDADRPSGVPSRFSGSNSGNDATLTISSLQPEDFATYYCQAPTNNDPYTFGQGTKVEIKR", "koff [s⁻¹]": 0.000165}
{"BINDER": "D3 (scFv form) (scFv, V domains shown, Tested as scFv) VH: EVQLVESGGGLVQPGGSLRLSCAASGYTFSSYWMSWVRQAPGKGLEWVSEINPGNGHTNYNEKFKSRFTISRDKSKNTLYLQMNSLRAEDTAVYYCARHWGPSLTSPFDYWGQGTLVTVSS VL: DIQMTQSPSSLSASVGDRVTITCRADNLGDVNVHWYQQKPGKAPKLLIYYDADRPSGVPSRFSGSNSGNDATLTISSLQPEDFATYYCQAPTKNVPYTFGQGTKVEIKR", "koff [s⁻¹]": 0.00015}
